Target: Cacnb1 (rat); further: test concentration or dose not given here
Experiment: reporter assay of Huesken 2005
Details: siRNA
Oligonucleotides are given in HELM: sugar(base)linkage, 5' to 3'; d 2'-deoxyribose, r ribose, m 2'-O-methylribose, p phosphate. ss, as = sense and antisense strand
Observation Type: normalised inhibition (eCFP-eYFP dual reporter)

Exercise: Input "RNA1{r(A)p.r(G)p.r(A)p.r(A)p.r(U)p.r(G)p.r(A)p.r(G)p.r(C)p.r(U)p.r(G)p.r(G)p.r(A)p.r(G)p.r(G)p.r(G)p.r(C)p.r(U)p.r(G)p.d(T)p.d(T)}|RNA2{r(C)p.r(A)p.r(G)p.r(C)p.r(C)p.r(C)p.r(U)p.r(C)p.r(C)p.r(A)p.r(G)p.r(C)p.r(U)p.r(C)p.r(A)p.r(U)p.r(U)p.r(C)p.r(U)p.d(T)p.d(A)}$$$RNA1{StrandType:ss}|RNA2{StrandType:as}$" , output reported normalised inhibition (eCFP-eYFP dual reporter).
Solution: 75.3%

Exercise: Input "RNA1{r(G)p.r(C)p.r(C)p.r(C)p.r(A)p.r(C)p.r(A)p.r(G)p.r(G)p.r(G)p.r(C)p.r(A)p.r(A)p.r(A)p.r(U)p.r(A)p.r(C)p.r(A)p.r(G)p.d(T)p.d(T)}|RNA2{r(C)p.r(U)p.r(G)p.r(U)p.r(A)p.r(U)p.r(U)p.r(U)p.r(G)p.r(C)p.r(C)p.r(C)p.r(U)p.r(G)p.r(U)p.r(G)p.r(G)p.r(G)p.r(C)p.d(T)p.d(G)}$$$RNA1{StrandType:ss}|RNA2{StrandType:as}$" , output reported normalised inhibition (eCFP-eYFP dual reporter).
Solution: 75.8%
